Let's look at some compounds and their measured pIC50.
target.or.test.system: Genome polyprotein (Hepatitis C virus genotype 1b (isolate Con1))
Sequence (Q9WMX2 2420-3010 limits assumed): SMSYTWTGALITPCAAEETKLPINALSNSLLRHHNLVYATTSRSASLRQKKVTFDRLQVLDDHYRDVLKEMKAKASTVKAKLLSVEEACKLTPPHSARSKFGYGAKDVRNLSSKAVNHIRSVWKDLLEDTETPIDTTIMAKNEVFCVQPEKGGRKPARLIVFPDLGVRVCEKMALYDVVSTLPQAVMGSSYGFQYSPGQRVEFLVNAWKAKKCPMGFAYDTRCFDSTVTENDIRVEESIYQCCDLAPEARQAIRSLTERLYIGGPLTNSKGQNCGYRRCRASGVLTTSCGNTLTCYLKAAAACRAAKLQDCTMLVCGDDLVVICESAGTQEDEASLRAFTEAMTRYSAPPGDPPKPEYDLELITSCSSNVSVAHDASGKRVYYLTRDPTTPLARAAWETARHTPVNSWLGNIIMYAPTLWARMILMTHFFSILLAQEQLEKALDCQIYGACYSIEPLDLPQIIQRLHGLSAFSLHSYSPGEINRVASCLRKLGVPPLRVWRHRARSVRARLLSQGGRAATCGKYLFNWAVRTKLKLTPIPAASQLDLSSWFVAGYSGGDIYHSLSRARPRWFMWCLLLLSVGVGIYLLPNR
assay.summary: Inhibition of […] 1b con1 NS5B polymerase assessed as [3H]UTP incorporation into acid insoluble RNA product
Please treat pIC50 as minus the base-10 logarithm of the molar concentration.

These recorded examples may help you get a feel for the data.
compound: CC(=O)C1C(C2C(=O)[C@H](C(C)(C)C)N(Cc3ccc(F)cc3)C2=O)=Nc2ccc(NS(C)(=O)=O)cc2S1(=O)=O (some centres not stated)
value: 8.40
//
compound: CC(C)(C)[C@H]1C(=O)C(C2=Nc3ccc(NS(C)(=O)=O)cc3S(=O)(=O)C2)C(=O)N1Cc1ccccc1 (some centres not stated)
value: 8.10
//
compound: CC(C)(C)CCN1C(=O)C(C2=Nc3ccc(NS(C)(=O)=O)cc3S(=O)(=O)C2)C(=O)[C@@H]1C(C)(C)C (some centres not stated)
value: 8.10

Recall and state the measured pIC50 for COc1cc(CN2C(=O)C(C3=Nc4ccc(NS(C)(=O)=O)cc4S(=O)(=O)C3)C(=O)[C@@H]2C(C)(C)C)ccc1F (some centres not stated) . 8.40

Determine its reported pIC50: CC(C)CCN1C(=O)C(C2=Nc3ccc(NS(C)(=O)=O)cc3S(=O)(=O)C2)C(=O)[C@@H]1C(C)(C)C (some centres not stated) 8.30

Supply recorded pIC50 for CC(C)(C)[C@H]1C(=O)C(C2=Nc3ccc(NS(C)(=O)=O)cc3S(=O)(=O)C2)C(=O)N1Cc1ccc(F)c(Cl)c1 (some centres not stated) here. 8.30

State its pIC50: CC(C)(C)[C@H]1C(=O)C(C2=Nc3ccc(NS(C)(=O)=O)cc3S(=O)(=O)C2)C(=O)N1Cc1ccc(F)cc1F (some centres not stated) 7.89
